# system: Protein-tyrosine kinase 2-beta (Homo sapiens) (UniProt Q14289)
# Sequence (Q14289 whole entry, looked up): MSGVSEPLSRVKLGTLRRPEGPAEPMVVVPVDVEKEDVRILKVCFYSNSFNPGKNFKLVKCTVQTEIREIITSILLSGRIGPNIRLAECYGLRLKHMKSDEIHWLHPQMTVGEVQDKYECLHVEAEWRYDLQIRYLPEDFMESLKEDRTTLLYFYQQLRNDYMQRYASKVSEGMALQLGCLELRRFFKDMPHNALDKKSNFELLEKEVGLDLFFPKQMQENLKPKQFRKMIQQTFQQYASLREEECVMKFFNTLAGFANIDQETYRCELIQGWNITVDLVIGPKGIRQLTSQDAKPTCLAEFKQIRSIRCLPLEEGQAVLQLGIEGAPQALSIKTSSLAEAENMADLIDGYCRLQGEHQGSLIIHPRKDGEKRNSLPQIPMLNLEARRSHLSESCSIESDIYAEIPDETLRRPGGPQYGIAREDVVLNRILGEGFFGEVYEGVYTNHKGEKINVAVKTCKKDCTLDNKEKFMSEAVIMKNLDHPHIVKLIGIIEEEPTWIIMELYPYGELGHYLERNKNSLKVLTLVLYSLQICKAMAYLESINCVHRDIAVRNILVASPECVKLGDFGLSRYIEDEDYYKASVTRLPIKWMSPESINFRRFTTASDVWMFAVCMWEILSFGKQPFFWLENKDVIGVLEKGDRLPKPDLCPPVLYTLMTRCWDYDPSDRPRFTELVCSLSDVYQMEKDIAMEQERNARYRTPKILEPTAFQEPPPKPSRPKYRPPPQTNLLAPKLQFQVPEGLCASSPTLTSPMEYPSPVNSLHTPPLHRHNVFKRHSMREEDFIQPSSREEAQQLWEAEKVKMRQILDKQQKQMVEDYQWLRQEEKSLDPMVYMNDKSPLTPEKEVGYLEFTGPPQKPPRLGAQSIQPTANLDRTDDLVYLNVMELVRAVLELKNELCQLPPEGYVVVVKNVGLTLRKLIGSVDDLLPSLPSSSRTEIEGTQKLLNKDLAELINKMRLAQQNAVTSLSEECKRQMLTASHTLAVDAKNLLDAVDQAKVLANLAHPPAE
# assayText: antagonists of Pyk2 self-association, primary screen, Q293 cells, FERM NanoBiT luminescence, HTS (AID 1347419);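 further: the deposit names both 25 µM and 10 µM; negative z-score means lost luminescence so less FERM oligomerization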
# Design: dose or concentration left out as unconfirmed
# runParameters: hits give low values
The whole screen tested about 99,000 compounds, of which about 820 (0.83%) were called active. The entries come from a sample that favours actives as a whole.
# strict inequality: z-score < 0.2 yields Fulfilled, everything else yields Not fulfilled

| molecule | label |
| --- | --- |
| Cc1cccc(-n2c(C)cc(/C=N\NC(=O)c3cccs3)c2C)c1 | Fulfilled |
| COc1ccc(N(CC(=O)N/N=C/c2cccs2)S(=O)(=O)c2ccc(OC)c(OC)c2)cc1 | Fulfilled |
| CCOc1ccc(C(=O)Nc2cccc(SC)c2)cc1 | Not fulfilled |
| Fc1ccc2[nH]c3c(N4CCSCC4)ncnc3c2c1 | Fulfilled |
| Cc1cc(C)c(C2C3=C(Nc4c2c(C)nn4-c2ccccn2)c2ccccc2C3=O)c(C)c1 (stereo not drawn) | Not fulfilled |
| O=C(Nc1ccc2c(c1)OCCO2)c1ccc(Cl)c(S(=O)(=O)N2CCCCC2)c1 | Fulfilled |
| O=C(COC(=O)c1ccccc1SCC(=O)NC1CCCCC1)NC1CCCCC1 | Not fulfilled |
| Cc1ccc(C(=O)COC(=O)c2cccc(N3C(=O)c4c(C)nc5ccccc5c4C3=O)c2)cc1C | Not fulfilled |
| CCn1c(SCC(=O)Nc2ccc(C)cc2)nc2nc3c(cc2c1=O)CCCC3 | Fulfilled |
| O=C(Nc1ccc2c(c1)OCCO2)c1ccncc1 | Not fulfilled |
| O=C(NC(=S)Nc1ccc(NC(=O)c2cccs2)cc1)c1ccc([N+](=O)[O-])cc1 | Not fulfilled |
| O=C(CNCc1ccc(F)cc1)Nc1ccccc1-c1ccccc1 | Fulfilled |
| CC(C)OCCCNc1ncnc2c1[nH]c1ccc(F)cc12 | Fulfilled |
| COc1ccc(N(CC(=O)N/N=C/c2cccc3c2OCCO3)S(=O)(=O)c2ccc(NC(C)=O)cc2)cc1 | Fulfilled |
| Cc1ccc(S(=O)(=O)N(CC(=O)N/N=C/c2ccc(F)cc2)c2cccc3cccnc23)cc1 | Fulfilled |
| CCOc1ccc(Br)cc1S(=O)(=O)Nc1cccc(S(=O)(=O)N(CC)CC)c1 | Not fulfilled |
| CCOC(=O)c1cc2cc(-c3c(C(=O)OCC)oc4cc(O)cc(O)c4c3=O)ccc2o1 | Fulfilled |
| O=c1c(-c2ccc3c(c2)OCCO3)c(C(F)(F)F)oc2cc(O)cc(O)c12 | Fulfilled |

* * *

# system: Protein-tyrosine kinase 2-beta (Homo sapiens) (UniProt Q14289)
# assayText: antagonists of Pyk2 self-association, primary screen, Q293 cells, FERM NanoBiT luminescence, HTS (AID 1347419);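 further: the deposit names both 25 µM and 10 µM; negative z-score means lost luminescence so less FERM oligomerization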
# Parameters: dose or concentration left out as unconfirmed
# runParameters: hits give low values
About 820 (0.83%) of roughly 99,000 compounds were called active. Only a selection was taken, and actives are over-represented in it overall.

| compound | z-score |
| --- | --- |
| COC(=O)c1sccc1NC(=O)c1cc(OC)c(OC)c(OC)c1 | -0.79 (inactive) |
| Cc1ccc(-c2csc(NC(=O)c3cccs3)n2)cc1 | -3.32 (active) |
| N#Cc1c(NC(=O)CCCN2C(=O)c3ccccc3C2=O)oc(-c2ccccc2)c1-c1ccccc1 | -3.57 (active) |
| OC(COCc1ccco1)CN1CCN(c2ccccc2)CC1 (configuration not stated) | 1 (inactive) |
| CCOc1ccc(NC(=O)CCC(=O)N/N=C/c2ccc([N+](=O)[O-])s2)cc1 | 0.19 (inactive) |
| FC(F)(F)c1cc(-c2ccco2)nc(NCc2ccc(Cl)cc2)n1 | 0.02 (inactive) |
| CCOC(=O)c1c(-c2ccc(C)cc2C)csc1NC(=O)CSc1nnnn1C | -3.44 (active) |
| Cc1ccc(-c2nnc(-c3ccc(NC(=O)c4cccs4)cc3)o2)cc1 | -0.15 (inactive) |
| Cc1ccc(S(=O)(=O)NNC(=O)Nc2cccc3ccccc23)cc1 | -1.37 (inactive) |
| Cc1cccc(-n2c(SCC(N)=O)nc3c(c2=O)C2(CCCCC2)Cc2ccccc2-3)c1 | 1.27 (inactive) |
| COc1ccc(CCn2nnnc2C(c2ccccc2)N2CCN(C)CC2)cc1OC (configuration not stated) | 0.7 (inactive) |
| COc1cccc2c1CCC(NC(C)=O)C2=O (configuration not stated) | 0.78 (inactive) |
| COc1ccc(-c2cc(C(F)(F)F)nc(NCc3cccnc3)n2)cc1 | -3.51 (active) |
| Cc1ccc(C(=O)N2CC(=O)Nc3ccccc32)o1 | -0.11 (inactive) |
| Cc1ccc(C(=O)N/C(=C/c2cccnc2)C(=O)O)cc1 | 0.41 (inactive) |
| CC1(C)C/C(=C(/C#N)C(N)=O)CCO1 | -3.62 (active) |
| CC(=O)CCC(=O)c1ccc2ccccc2c1 | 1.48 (inactive) |
